assay_info: Solubility of compound in water at pH 7.4
Assay type: physicochemical
Each entry below carries its recorded solubility.
quantity_kind: solubility

> print(dat)
                  compound.structure.string  reported.measurement
1  Cc1cc(C#N)cc(C)c1Oc1nc(NC2CCN(CC(=O)N3CCOCC3)CC2)nc2c1SCC2            29.1 µg/mL
2  Cc1cc(C#N)cc(C)c1Oc1nc(NC2CCN(CCN3CCOCC3)CC2)nc2sccc12            19.7 µg/mL
3  Cc1cc(C#N)cc(C)c1Oc1nc(NC2CCN(CC(=O)N3CCOCC3)CC2)nc2sccc12            27.6 µg/mL
4  Cc1cc(C#N)cc(C)c1Oc1nc(NC2CCN(CCN3CCOCC3)CC2)nc2ccsc12            15.6 µg/mL
